Target: Sialic acid-binding Ig-like lectin 9 (Homo sapiens)
Assay: Hs-Siglec9 ALPHAscreen SOP 20170721
Set-up: scale not given: direction of the effect not stated beside the values
Conditions: 10 µM

>  <molecule>
Cc1nc(C)n(CC2CCCN(CCCOc3ccccc3)C2)n1 (stereo not drawn)

>  <Percent Effect>
3.65%

$$$$
>  <molecule>
O=C(NCC(F)(F)F)C1CSCN1S(=O)(=O)c1ccc(F)cc1 (stereo not drawn)

>  <Percent Effect>
-0.453%

$$$$
>  <molecule>
CC(O)CN1CCN(C(=O)c2ccn(-c3cccc(Cl)c3)n2)CC1 (stereo not drawn)

>  <Percent Effect>
-7.86%

$$$$
>  <molecule>
O=C(COc1ccc(C(F)(F)F)cc1)NS(=O)(=O)c1cccnc1

>  <Percent Effect>
-3.63%

$$$$
>  <molecule>
c1ccc(CN2CCN(Cc3cscn3)CC2)cc1

>  <Percent Effect>
7.55%

$$$$
>  <molecule>
Cc1ncsc1CN1C[C@@H]2COC[C@]2(C(=O)NCC2CC2)C1

>  <Percent Effect>
2.51%

$$$$
>  <molecule>
COc1ccc(CN(C)C(=O)CCC(=O)c2cccs2)c(OC)c1OC

>  <Percent Effect>
9.32%

$$$$
>  <molecule>
CCS(=O)(=O)Nc1ccc(C(=O)NCCCN2CCCC2)cc1

>  <Percent Effect>
-3.93%

$$$$
>  <molecule>
Cc1cnc(CN2CCOC(Cn3nc(C)nc3C)C2)cn1 (stereo not drawn)

>  <Percent Effect>
2.13%

$$$$
>  <molecule>
Cc1ncccc1OC1(C(=O)NCCCN2CCOCC2)CCNCC1

>  <Percent Effect>
-0.0436%

$$$$
>  <molecule>
CN(Cc1cccc(Cl)c1)S(=O)(=O)N1CCOCC1

>  <Percent Effect>
-2.67%

$$$$
>  <molecule>
Cn1ncc2c(=O)[nH]c(CN3CCC(Cc4ccccc4)CC3)nc21

>  <Percent Effect>
0.445%

$$$$
>  <molecule>
CC(=O)N(C)c1nc(CN2CCOC(Cn3cccn3)C2)cs1 (stereo not drawn)

>  <Percent Effect>
15.7%

$$$$
>  <molecule>
COc1ccc(NC(C)C(=O)N2CCN(Cc3ccccc3)CC2)cn1 (stereo not drawn)

>  <Percent Effect>
-6.68%

$$$$
>  <molecule>
CC(=O)N1CCN(Cc2nnc(C(C)(C)C)o2)CC1

>  <Percent Effect>
-0.469%

$$$$
>  <molecule>
Cc1cnc2n(c1=O)C(CC(=O)NCc1cc(-c3cccs3)on1)CS2 (stereo not drawn)

>  <Percent Effect>
-23.7%

$$$$
>  <molecule>
COCc1cnc2n1CCN(Cc1cccnc1)C2C (stereo not drawn)

>  <Percent Effect>
6.43%

$$$$
>  <molecule>
CNC(=O)[C@H]1C[C@H]2OCC[C@H]2N(Cc2ccc(C)o2)C1

>  <Percent Effect>
0.238%

$$$$
>  <molecule>
CCc1csc(CCNC(=O)C2CC(=O)N(C(C)C)C2)n1 (stereo not drawn)

>  <Percent Effect>
4.97%

$$$$
>  <molecule>
Cc1cnc(CN(C)C2CCN(CC(=O)N(C)c3nccs3)C2)o1 (stereo not drawn)

>  <Percent Effect>
-2.38%

$$$$
>  <molecule>
O=C(NC1CCCN(c2ncccn2)C1)c1ccoc1 (stereo not drawn)

>  <Percent Effect>
-9.78%

$$$$
>  <molecule>
Cc1cnn(CCC(=O)N2CCCN(c3ncccc3C#N)CC2)c1

>  <Percent Effect>
6.67%

$$$$
>  <molecule>
O=C(c1ccc(Cl)o1)N1CCCN(Cc2cscn2)CC1

>  <Percent Effect>
-4.3%

$$$$
>  <molecule>
N#Cc1cccc(NC(=O)N[C@H](CO)c2ccccc2)c1

>  <Percent Effect>
5.37%

$$$$
>  <molecule>
COc1ccc(C(=O)N(C)Cc2nnc3ccccn23)c(OC)c1

>  <Percent Effect>
4.72%

$$$$
>  <molecule>
O=C(O)c1ccn(-c2ccccc2NS(=O)(=O)c2ccccc2)n1

>  <Percent Effect>
0.187%

$$$$
>  <molecule>
O=C(NCC1CC1)[C@H]1C[C@H]2OCC[C@H]2N(CCc2ccccc2)C1

>  <Percent Effect>
-3.87%

$$$$
>  <molecule>
Cc1ccc2c(n1)N(C)CCN(C(=O)NC1CC1)C2

>  <Percent Effect>
-1.66%

$$$$
>  <molecule>
Cc1noc(C)c1C(=O)N1CCCC1c1c(C)nn(C)c1Cl (stereo not drawn)

>  <Percent Effect>
8.04%

$$$$
>  <molecule>
CSCC(CCO)NC(=O)Nc1cc(C)ccc1C (stereo not drawn)

>  <Percent Effect>
-7.14%

$$$$
>  <molecule>
CCN1CCN(c2ccc(F)cc2C(C)NCc2ccncc2)CC1 (stereo not drawn)

>  <Percent Effect>
-1.77%

$$$$
>  <molecule>
Clc1ccccc1C1(c2ccnc(CC3CC3)n2)CCNCC1

>  <Percent Effect>
13.8%

$$$$
>  <molecule>
COc1ccccc1CC(=O)NS(=O)(=O)c1cncc(Br)c1

>  <Percent Effect>
-5.24%

$$$$
>  <molecule>
COc1ccccc1S(=O)(=O)Nc1ccc2c(C(=O)O)c[nH]c2c1

>  <Percent Effect>
10.9%

$$$$
>  <molecule>
CCN(C(=O)CS(=O)(=O)Cc1cc(Cl)c2c(c1)OCCCO2)C1CC1

>  <Percent Effect>
-13.2%

$$$$
>  <molecule>
CCN(CCC(F)(F)F)C(=O)Nc1cccc(N2CCOCC2)c1

>  <Percent Effect>
14.9%

$$$$
>  <molecule>
CN(Cc1ccsc1)C(=O)c1cccc(F)c1

>  <Percent Effect>
3.27%

$$$$
>  <molecule>
Cc1cnn(CC2CCCN2Cc2ncc(-c3ccccc3)o2)c1 (stereo not drawn)

>  <Percent Effect>
-3.94%

$$$$
>  <molecule>
CCCn1nc2c(cc1=O)CN(CCS(C)(=O)=O)CC2

>  <Percent Effect>
22.6%

$$$$
>  <molecule>
CCN(CC)c1ccc(C(=O)NCc2cccnc2-n2cncn2)cn1

>  <Percent Effect>
48.7%

$$$$
>  <molecule>
Cc1ccc(C(=O)N2CCN(CCCSCC#N)CC2)o1

>  <Percent Effect>
10.8%

$$$$
>  <molecule>
COc1cccc(CC2CN(C3CCN(C(C)=O)CC3)CCO2)c1 (stereo not drawn)

>  <Percent Effect>
2.19%

$$$$
>  <molecule>
Cc1nc(NC2CCCC2)cc(C2CCN2C(=O)c2cccnc2)n1 (stereo not drawn)

>  <Percent Effect>
1.33%

$$$$
>  <molecule>
Cc1cnn(CC2CCCN2C(=O)c2cn(-c3ccccc3)nc2C)c1 (stereo not drawn)

>  <Percent Effect>
13.6%

$$$$
>  <molecule>
O=C(NCC1CC1)[C@H]1C[C@@H]2CCN(Cc3nccs3)C[C@@H]2O1

>  <Percent Effect>
-2.2%

$$$$
>  <molecule>
c1cnnc(N2CCCC2CNc2ncnc3c2CCC3)c1 (stereo not drawn)

>  <Percent Effect>
-6.25%

$$$$
>  <molecule>
Fc1ccc(CN2CCO[C@H]3[C@H](OCC4CC4)CC[C@@H]32)cc1

>  <Percent Effect>
0.245%

$$$$
>  <molecule>
c1cc(-c2cnccn2)cc(-c2ccn(CCN3CCCC3)n2)c1

>  <Percent Effect>
2.06%

$$$$
